Attribution: PubChem BioAssay AID652241

Test System: Virion infectivity factor (Human immunodeficiency virus type 1 group M subtype B (isolate BH10)) + Virion infectivity factor (Human immunodeficiency virus type 1 group M subtype B (isolate BRU/LAI)) + Virion infectivity factor (Human immunodeficiency virus type 1 group M subtype B (isolate PCV12)) + Virion infectivity factor (Human immunodeficiency virus type 1 group M subtype B (isolate HXB2)) (UniProt P69720+P69721+P69722+P69723)
Sequence (P69720 whole entry, looked up): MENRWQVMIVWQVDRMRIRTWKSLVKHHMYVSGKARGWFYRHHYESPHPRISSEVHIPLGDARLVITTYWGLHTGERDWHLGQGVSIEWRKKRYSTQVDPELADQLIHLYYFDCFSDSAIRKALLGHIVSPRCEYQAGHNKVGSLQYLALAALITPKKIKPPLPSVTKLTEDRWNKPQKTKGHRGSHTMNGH
Sequence (P69721 whole entry, looked up): as the sequence (P69720 whole entry, looked up) above
Sequence (P69722 whole entry, looked up): as the sequence (P69720 whole entry, looked up) above
Sequence (P69723 whole entry, looked up): as the sequence (P69720 whole entry, looked up) above
Protocol Details: dose-dependent disruption of HIV Vif self-association – imaging, HEK293T, cherry-picks, dose response (AID 652241);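 further: imaged cell signal that rises when Vif self-association is disrupted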
Recorded Conditions: HEK293T Vif multimerization imaging, 24 h; at 19.5 µM (top of the series)
Results filed as inconclusive are left out. The source made the active and inactive calls.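 How the source made its calls: active means fitted curve reaches activity 50 in the expected rising direction at or below the top valid tested dose; inconclusive means no clear call, values can overlap the other calls; inactive means activity in the wrong direction, and the rest.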
Measured Quantity: activity, higher = inhibition

Asked: I would be grateful if you could share the reported activity, higher = inhibition for O=c1sc(N2CCN(c3ccc(F)cc3)CC2)nc2ccsc12 .
Given back: inactive

Asked: Item: O=C(CSc1nnc(CNc2ccc(F)cc2)o1)c1ccccc1
Given back: inactive

Asked: Also Cc1ccc(Nc2nc(N)nc(CSc3nnc(-c4ccncc4)o3)n2)cc1 ?
Given back: inactive

Asked: Do the same for CCOC(=O)C1CCCN(C(=O)c2cc(S(=O)(=O)N(C)C)ccc2N2CCCC2)C1 (centres undefined) please
Given back: inactive
